TESTED SYSTEM: T1, LHD101 chainB, split luciferase reporter construct
T1 construct: not shown: N-terminal Strep-tag and sfGFP; GS-linker and smBiT or lgBiT
T1 chain: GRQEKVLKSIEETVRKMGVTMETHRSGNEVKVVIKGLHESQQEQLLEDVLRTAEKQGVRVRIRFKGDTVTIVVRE
ASSAY SUMMARY: split luciferase; affinity of the interface as measured in isolation, used to simulate the ternary complex ABC
ASSAY READOUT: Kd (nM)
Provide only the numeric value, understood in nM.

Request: Identify the reported Kd for the following entry. LHD101 chainA, split luciferase reporter construct (designed binder, not shown: N-terminal Strep-tag and sfGFP; GS-linker and smBiT or lgBiT) GRQEKVLKSIEETVRKMGVTMETHRSGNEVKVVIKGLHIKQQRQLYRDVRETSKKQGVETEIEVEGDTVTIVVRE
Response: 5
